Could you please report measured pKi for the items listed next?
target: Kappa-type opioid receptor (Homo sapiens, UniProt P41145)
Sequence (P41145 whole entry): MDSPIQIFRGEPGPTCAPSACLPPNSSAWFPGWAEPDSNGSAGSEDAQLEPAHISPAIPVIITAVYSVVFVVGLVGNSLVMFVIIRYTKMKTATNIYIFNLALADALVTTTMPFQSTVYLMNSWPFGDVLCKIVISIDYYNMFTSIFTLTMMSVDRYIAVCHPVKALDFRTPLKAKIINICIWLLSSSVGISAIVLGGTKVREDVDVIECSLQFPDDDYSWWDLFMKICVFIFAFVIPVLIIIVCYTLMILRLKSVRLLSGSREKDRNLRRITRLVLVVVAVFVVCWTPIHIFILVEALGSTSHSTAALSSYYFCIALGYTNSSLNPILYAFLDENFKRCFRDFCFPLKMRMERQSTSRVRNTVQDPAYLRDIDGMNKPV
Where a SMILES comes first, the peptide text is derived from it.
# pKi: negative log10 of molar concentration; output just the value

Ask: Given N=C(N)NCCC[C@@H](NC(=O)[C@@H]1CCC(=O)N1)C(=O)N[C@H](CCCNC(=N)N)C(=O)N[C@@H](CCC(N)=O)C(=O)N[C@@H](CC1CCCCC1)C(=O)N[C@H]1CCSSCC[C@@H](C(N)=O)NC1=O , state its recorded pKi.
Reply: 6.62

Ask: Given CC[C@H](C)[C@H](NC(=O)[C@H](CCC(N)=O)NC(=O)[C@H](CCCNC(N)=O)NC(=O)[C@H](CCCNC(=N)N)NC(=O)[C@@H]1CSSC[C@H](NC(=O)[C@@H](N)CC(N)=O)C(=O)N1)C(=O)NC1CSSC[C@@H](C(N)=O)NC1=O (single isomer, unassigned) , state its recorded pKi.
Reply: 6.41

Ask: Given N=C(N)NCCC[C@@H](NC(=O)[C@@H](CCCNC(=N)N)NC(=O)[C@@H]1CCCN1C(=O)c1ccccc1)C(=O)N[C@@H](CCC(N)=O)C(=O)N[C@@H](CC1CCCCC1)C(N)=O , state its recorded pKi.
Reply: 4.65

Ask: Given CC[C@H](C)[C@@H]1NC(=O)[C@H](CCC(N)=O)NC(=O)[C@H](CCCNC(=N)N)NC(=O)[C@H](CCCNC(=N)N)NC(=O)[C@@H]2CSSC[C@@H](C(N)=O)NC(=O)[C@H](CSSC[C@H](NC(=O)[C@@H](N)CC(N)=O)C(=O)N2)NC1=O (HELM PEPTIDE1{N.C.C.R.R.Q.I.C.C.[am]}$PEPTIDE1,PEPTIDE1,2:R3-8:R3|PEPTIDE1,PEPTIDE1,3:R3-9:R3$$$V2.0) , state its recorded pKi.
Reply: 5.83

Ask: Given N=C(N)NCCC[C@@H](NC(=O)[C@@H]1CCC(=O)N1)C(=O)N[C@H](CCCNC(=N)N)C(=O)N[C@@H](CCC(N)=O)C(=O)N[C@@H](CC1CCCCC1)C(=O)N[C@H]1CSSCC[C@@H](C(N)=O)NC1=O , state its recorded pKi.
Reply: 5.80

Ask: Given CC[C@H](C)[C@H](NC(=O)[C@H](CCC(N)=O)NC(=O)[C@H](CCCNC(=N)N)NC(=O)[C@@H](N)CCCNC(=N)N)C(=O)N[C@H]1CSSC[C@@H](C(N)=O)NC1=O (HELM PEPTIDE1{R.R.Q.I.C.C.[am]}$PEPTIDE1,PEPTIDE1,5:R3-6:R3$$$V2.0) , state its recorded pKi.
Reply: 6.57

Ask: Given N=C(N)NCCC[C@H](NC(=O)[C@@H](CCCNC(=N)N)NC(=O)[C@@H]1CCC(=O)N1)C(=O)N[C@@H](CCC(N)=O)C(=O)N[C@@H](CC1CCCCC1)C(=O)N[C@H]1CSSC[C@@H](C(N)=O)NC1=O , state its recorded pKi.
Reply: 7.89

Ask: Given N=C(N)NCCC[C@H](NC(=O)[C@@H](CCCNC(=N)N)NC(=O)[C@@H](CCCNC(=N)N)NC(=O)[C@@H]1CCCN1C(=O)c1ccccc1)C(=O)N[C@@H](CC1CCCCC1)C(=O)N[C@H]1CSSC[C@@H](C(N)=O)NC1=O , state its recorded pKi.
Reply: 9.64

Ask: Given CC[C@H](C)[C@H](NC(=O)[C@H](CCC(N)=O)NC(=O)[C@H](CCCNC(=N)N)NC(=O)[C@H](CCCNC(N)=O)NC(=O)[C@@H]1CSSC[C@H](NC(=O)[C@@H](N)CC(N)=O)C(=O)N1)C(=O)N[C@H]1CSSC[C@@H](C(N)=O)NC1=O (HELM PEPTIDE1{N.C.C.[Cit].R.Q.I.C.C.[am]}$PEPTIDE1,PEPTIDE1,2:R3-3:R3|PEPTIDE1,PEPTIDE1,8:R3-9:R3$$$V2.0) , state its recorded pKi.
Reply: 6.66

Ask: Given N=C(N)NCCC[C@@H](NC(=O)[C@@H]1Cc2ccccc2CN1)C(=O)N[C@H](CCCNC(=N)N)C(=O)N[C@@H](CCC(N)=O)C(=O)N[C@@H](CC1CCCCC1)C(=O)N[C@H]1C[Se][Se]C[C@@H](C(N)=O)NC1=O , state its recorded pKi.
Reply: 8.62

Ask: Given CC(C)C[C@H](NC(=O)[C@H](CCC(N)=O)NC(=O)[C@H](CCCNC(=N)N)NC(=O)[C@H](CCCNC(=N)N)NC(=O)[C@@H]1CSSC[C@H](NC(=O)[C@@H](N)CC(N)=O)C(=O)N1)C(=O)N[C@H]1CSSC[C@@H](C(N)=O)NC1=O (HELM PEPTIDE1{N.C.C.R.R.Q.L.C.C.[am]}$PEPTIDE1,PEPTIDE1,2:R3-3:R3|PEPTIDE1,PEPTIDE1,8:R3-9:R3$$$V2.0) , state its recorded pKi.
Reply: 7.62

Ask: Given N=C(N)NCCC[C@@H](NC(=O)[C@@H](CCCNC(=N)N)NC(=O)[C@@H]1CCCN1C(=O)c1ccccc1)C(=O)N[C@@H](CO)C(=O)N[C@@H](CC1CCCCC1)C(=O)N[C@H]1CSSC[C@@H](C(N)=O)NC1=O , state its recorded pKi.
Reply: 9.38

Ask: Given N=C(N)NCCC[C@@H](NC(=O)[C@@H](CCCNC(=N)N)NC(=O)[C@@H]1CCCN1C(=O)c1ccccc1)C(=O)N[C@@H](CCCCN)C(=O)N[C@@H](CC1CCCCC1)C(=O)N[C@H]1CSSC[C@@H](C(N)=O)NC1=O , state its recorded pKi.
Reply: 9.23

Ask: Given CC[C@H](C)[C@H](NC(=O)[C@H](CCC(N)=O)NC(=O)[C@H](CCCNC(=N)N)NC(=O)[C@H](CCCCN)NC(=O)[C@@H]1CSSC[C@H](NC(=O)[C@@H](N)CC(N)=O)C(=O)N1)C(=O)N[C@H]1CSSC[C@@H](C(N)=O)NC1=O (HELM PEPTIDE1{N.C.C.K.R.Q.I.C.C.[am]}$PEPTIDE1,PEPTIDE1,2:R3-3:R3|PEPTIDE1,PEPTIDE1,8:R3-9:R3$$$V2.0) , state its recorded pKi.
Reply: 6.37

Ask: Given N=C(N)NCCC[C@@H](NC(=O)c1ccc(F)cc1)C(=O)N[C@H](CCCNC(=N)N)C(=O)N[C@@H](CCC(N)=O)C(=O)N[C@@H](CC1CCCCC1)C(=O)N[C@H]1CSSC[C@@H](C(N)=O)NC1=O , state its recorded pKi.
Reply: 8.27

Ask: Given N=C(N)NCCC[C@@H](NC(=O)[C@@H](CCCNC(=N)N)NC(=O)[C@@H]1CCCN1C(=O)c1ccc(Cl)cc1)C(=O)N[C@@H](CCC(N)=O)C(=O)N[C@@H](CC1CCCCC1)C(=O)N[C@H]1CSSC[C@@H](C(N)=O)NC1=O , state its recorded pKi.
Reply: 9.89

====

species on record: Homo sapiens; assay: Selectivity ratio, ratio of Ki for human KOR to Ki for human NOP
Where a SMILES comes first, the peptide text is derived from it.
measured parameter: Ratio Ki

Ask: Given N=C(N)NCCC[C@@H](NC(=O)[C@@H](CCCNC(=N)N)NC(=O)[C@@H]1CCCN1C(=O)c1ccccc1)C(=O)N[C@@H](CCC(N)=O)C(=O)N[C@H](C(=O)N[C@H]1CSSC[C@@H](C(N)=O)NC1=O)C1CCCCC1 , state its recorded Ratio Ki.
Reply: > 125000

Ask: Given N=C(N)NCCC[C@@H](NC(=O)[C@@H]1CCC(=O)N1)C(=O)N[C@H](CCCNC(=N)N)C(=O)N[C@@H](CCC(N)=O)C(=O)N[C@@H](CC1CCCCC1)C(=O)N[C@H]1CSSC[C@@H](C(N)=O)NC1=O , state its recorded Ratio Ki.
Reply: > 10000

Ask: Given CC[C@H](C)[C@H](NC(=O)[C@H](CCC(N)=O)NC(=O)[C@H](CCCNC(=N)N)NC(=O)[C@H](CCCNC(=N)N)NC(=O)[C@@H]1CCC(=O)N1)C(=O)N[C@H]1CSSC[C@@H](C(N)=O)NC1=O (HELM PEPTIDE1{[Glp].R.R.Q.I.C.C.[am]}$PEPTIDE1,PEPTIDE1,6:R3-7:R3$$$V2.0) , state its recorded Ratio Ki.
Reply: > 250

Ask: Given N=C(N)NCCC[C@@H](NC(=O)[C@@H](CCCNC(=N)N)NC(=O)[C@@H]1CCCN1C(=O)c1ccccc1)C(=O)N[C@@H](CCC(N)=O)C(=O)N[C@@H](CC1CCCCC1)C(=O)N[C@H]1CSSC[C@@H](C(N)=O)NC1=O , state its recorded Ratio Ki.
Reply: > 45000
